Molecular target: T1, Rrp4-exosome WT (Sulfolobus solfataricus, UniProt Q9UXC4;Q9UXC2;Q9UXC0 1-249;1-248;1-275)
T1 sequence 1: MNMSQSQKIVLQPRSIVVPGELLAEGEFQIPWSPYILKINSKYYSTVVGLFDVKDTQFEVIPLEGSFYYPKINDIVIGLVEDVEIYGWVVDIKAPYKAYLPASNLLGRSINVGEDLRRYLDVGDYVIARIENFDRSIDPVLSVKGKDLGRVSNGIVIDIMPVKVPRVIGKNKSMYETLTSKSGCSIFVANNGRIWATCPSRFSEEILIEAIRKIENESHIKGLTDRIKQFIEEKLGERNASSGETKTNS
T1 sequence 2: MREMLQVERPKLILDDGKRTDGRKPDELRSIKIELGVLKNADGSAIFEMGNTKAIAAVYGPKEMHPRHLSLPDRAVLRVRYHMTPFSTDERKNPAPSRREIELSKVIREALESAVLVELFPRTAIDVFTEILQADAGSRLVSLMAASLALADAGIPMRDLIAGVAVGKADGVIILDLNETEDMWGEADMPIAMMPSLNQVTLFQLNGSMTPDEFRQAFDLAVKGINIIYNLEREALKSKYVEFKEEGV
T1 sequence 3: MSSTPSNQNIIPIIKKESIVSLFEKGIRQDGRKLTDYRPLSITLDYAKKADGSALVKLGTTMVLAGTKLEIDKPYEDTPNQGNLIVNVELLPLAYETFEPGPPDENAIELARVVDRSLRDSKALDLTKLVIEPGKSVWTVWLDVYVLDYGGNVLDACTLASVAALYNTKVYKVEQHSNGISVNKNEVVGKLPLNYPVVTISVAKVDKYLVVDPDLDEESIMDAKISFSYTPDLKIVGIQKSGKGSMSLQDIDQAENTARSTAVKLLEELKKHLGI
Test: fluorescence anisotropy
Measured attribute: pKd
Numbers only, as −log10 of the molar value.

Return reported pKd; argument: long RNA (4-thio-U, fluorescein) (structured_RNA, 4-thiouridine at the single U within the A tail (written U)) RNA: GCCCCCCCCGAAAGGGGGGGGAAAAAAAAAAAAAAAAAAAAAUAAAAAAAAAAAGCU
7.17
